Measured on: PfB (Plasmodium falciparum)
pKd: −log10 of the molar value.
Measured parameter: pKd

Request: Please give the measured pKd for this compound: O=c1c(O)cccc2cc(O)c(O)c(O)c12 [PPG]
Result: ~5.99

The measured values listed here are drawn from paper PMC8448092.
